Hey, just so you know, these numbers are from ChEMBL document CHEMBL1944547.

experiment: Solubility of the compound in PBS buffer at pH 7.4 after 24 hrs by LC-MS analysis
Type: physicochemical
Please provide measured solubility at 24 h for the entries that follow.
Answers are plain numbers, in µg/mL.

Reference set, count: 2
{"sampleSmiles": "O=C(CCC(F)(F)F)N1CCC(c2nc(-c3nccs3)no2)CC1", "measuredAttribute": "solubility at 24 h", "measureUnit": "µg/mL", "quantitativeResult": 300}
{"sampleSmiles": "COc1ccc2nc(-c3noc(C4CCN(C(=O)CCC(F)(F)F)CC4)n3)sc2c1", "measuredAttribute": "solubility at 24 h", "measureUnit": "µg/mL", "quantitativeResult": 6}

Okay, now this compound:
Q) Please report solubility at 24 h for the following compound: `O=C(CCC(F)(F)F)N1CCC(c2nc(-c3ccccc3)no2)CC1`
A) 40
